Values were extracted from PubChem BioAssay (NCI).

Kindly state growth for each of the entries shown.
- Test system: SK-MEL-5 melanoma
- measurement.protocol: NCI-60 one-dose screen, 48 h (100 = growth as untreated, 0 = no growth, -100 = all killed)
- measurement.parameters: 10 µM unless noted
This is part of a sample that, as a whole, favours compounds with a hit. Of some 83,000 tested, about 20% had one in any assay.
Give bare numbers, in %.

// worked examples, growth included
### Prompt For CC(=O)Nc1nc2c(s1)CC[C@@]1(C)C2=CC[C@H]2[C@@H]3CC[C@H](O)[C@@]3(C)CC[C@@H]21 , write its growth.
### Response 53.7

### Prompt Please look at this compound and report its growth: Cc1c(C)c([N+](=O)[O-])c(C)c(C)c1[N+](=O)[O-]
### Response 107

### Prompt Entry Nc1ncnc2n[nH]nc12 needs its growth filled in; supply it.
### Response 72.5

We next turn to a different compound, shown below.
### Prompt Look up and report measured growth for this entry: CC(=O)O[C@H](C[C@H](C(C)C)N(C)C(=O)[C@@H](NC(=O)[C@H]1CCCCN1C)C(C)C)c1cccc(C(=O)N[C@@H](Cc2ccccc2)C[C@H](C)C(=O)O)n1
### Response -39.2
